All figures here come from patent US20070293518A1.

test: Pharmacokinetic study of KW-3902, single intravenous dose, serum concentrations; type: in vivo; conditions: human, 40 mg, single intravenous dose 40 mg, Group 4, serum, read-out: Vss∞ Mean
Observed Property: Vd (L)
Numbers only; they are read as L.

Given item CCCn1c(=O)c2[nH]c(C34CC5CC(CC3C5)C4)nc2n(CCC)c1=O [KW-3902, 8-(3-noradamantyl)-1,3-dipropylxanthine] , the value recorded as its Vd is 178

---

test: Pharmacokinetic study of KW-3902, single intravenous dose, serum concentrations; type: in vivo; conditions: human, 1 mg, single intravenous dose 1 mg, Group 1, serum, read-out: T1/2 Mean (converted)
Observed Property: half-life (h)
Numbers only; they are read as h.

Given item CCCn1c(=O)c2[nH]c(C34CC5CC(CC3C5)C4)nc2n(CCC)c1=O , the value recorded as its half-life is 2.8

---

assay: Pharmacokinetic study of KW-3902, single intravenous dose, serum concentrations; format: in vivo; conditions: human, 20 mg, single intravenous dose 20 mg, Group 3, serum, read-out: T1/2 Mean (converted)
Observed Property: half-life (h)
Numbers only; they are read as h.

Given item CCCn1c(=O)c2[nH]c(C34CC5CC(CC3C5)C4)nc2n(CCC)c1=O [KW-3902, 8-(3-noradamantyl)-1,3-dipropylxanthine] , the value recorded as its half-life is 18
